Each recorded value in this set is attributed to patent US9920074B2.

# Test system: Btk (Tyr223) phosphorylation in Ramos cells (Homo sapiens)
# Construct: endogenous in cells; host or cells: Ramos cells (ATCC)
# Sequence (Q06187 whole entry): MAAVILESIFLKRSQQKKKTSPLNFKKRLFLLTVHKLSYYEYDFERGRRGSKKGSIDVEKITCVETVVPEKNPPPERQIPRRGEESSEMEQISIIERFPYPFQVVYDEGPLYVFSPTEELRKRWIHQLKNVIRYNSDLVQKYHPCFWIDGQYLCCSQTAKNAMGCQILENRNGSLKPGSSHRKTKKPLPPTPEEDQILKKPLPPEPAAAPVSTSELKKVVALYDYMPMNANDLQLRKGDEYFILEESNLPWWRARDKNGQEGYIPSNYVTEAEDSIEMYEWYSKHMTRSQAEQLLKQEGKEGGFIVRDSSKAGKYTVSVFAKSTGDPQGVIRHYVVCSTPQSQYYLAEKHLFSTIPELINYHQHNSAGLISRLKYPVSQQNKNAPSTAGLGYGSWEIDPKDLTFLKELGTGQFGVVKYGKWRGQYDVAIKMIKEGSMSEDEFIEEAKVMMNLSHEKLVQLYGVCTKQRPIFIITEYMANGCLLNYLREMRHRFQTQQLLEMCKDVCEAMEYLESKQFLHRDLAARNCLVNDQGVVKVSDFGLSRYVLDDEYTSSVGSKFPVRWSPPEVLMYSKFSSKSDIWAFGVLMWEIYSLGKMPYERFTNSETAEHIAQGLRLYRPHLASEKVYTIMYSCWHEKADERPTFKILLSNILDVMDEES
# Test details: Western blotting assay for Btk (Example 73)
# Type: cell-based
# Test parameters: 45 min, 6 μg/mL anti-IgM, read-out: Btk Inhibition
Overview of recorded IC50 for various compounds

Past entries and their recorded results:
Compound	IC50
C=CC(=O)Nc1cccc(Oc2nc(Nc3ccc(N4CCN(CCF)CC4)cc3)ncc2F)c1	10 to 100 nM
C=CC(=O)Nc1cccc(Oc2nc(Nc3ccc(N4CCN(CCS(C)(=O)=O)CC4)cc3)ncc2OC)c1 [Compound I-54a]	≤ 10 nM
C=CC(=O)Nc1cccc(Oc2nc(Nc3ccc(N4CCN(C)CC4)c(F)c3)ncc2OC)c1	≤ 10 nM
C=CC(=O)Nc1cccc(Oc2nc(Nc3ccc4c(c3)CCN4S(C)(=O)=O)ncc2OC)c1 [Compound I-59a]	≤ 10 nM
C=CC(=O)Nc1cccc(Oc2nc(Nc3ccc(N[C@H]4CCN(S(C)(=O)=O)C4)cc3)nc3[nH]ccc23)c1 [Compound I-62a]	≤ 10 nM
C=CC(=O)Nc1cccc(Nc2nc(Nc3ccc(N[C@H]4CCN(CCF)C4)cc3)ncc2F)c1	≤ 10 nM
C=CC(=O)Nc1cccc(Oc2nc(Nc3ccc4c(ccn4CCOC)c3)ncc2OC)c1 [Compound I-45a]	10 to 100 nM
C=CC(=O)Nc1cccc(Oc2nc(Nc3ccc(N[C@@H]4CCN(CCF)C4)cc3)ncc2OC)c1	10 to 100 nM

Result for C=CC(=O)Nc1cccc(Oc2nc(Nc3ccc(N(C)[C@H]4CCN(C(C)=O)C4)cc3)nc3[nH]ccc23)c1 [Compound I-64a] , tested on Btk (Tyr223) phosphorylation in Ramos cells (Homo sapiens), IC50: ≤ 10 nM

Result for C=CC(=O)Nc1cccc(Oc2nc(Nc3ccc(N(C)[C@H]4CCN(C(C)=O)C4)cc3)ncc2OC)c1 [Compound I-58a] , tested on Btk (Tyr223) phosphorylation in Ramos cells (Homo sapiens), IC50: ≤ 10 nM

Result for C=CC(=O)Nc1cccc(Oc2nc(Nc3ccc4c(c3)CS(=O)(=O)N4)ncc2OC)c1 [Compound I-70a] , tested on Btk (Tyr223) phosphorylation in Ramos cells (Homo sapiens), IC50: 10 to 100 nM

Result for C=CC(=O)Nc1cccc(Oc2nc(Nc3ccc(NCCOC)cc3)ncc2OC)c1 [Compound I-32a] , tested on Btk (Tyr223) phosphorylation in Ramos cells (Homo sapiens), IC50: ≤ 10 nM

Result for C=CC(=O)Nc1cccc(Oc2nc(Nc3ccc(N4CCN(C)CC4)c(F)c3)ncc2O)c1 [Compound I-23a] , tested on Btk (Tyr223) phosphorylation in Ramos cells (Homo sapiens), IC50: 10 to 100 nM

Result for C=CC(=O)Nc1cccc(Oc2nc(Nc3ccc(N(C)[C@H]4CCN(S(C)(=O)=O)C4)cc3)ncc2OC)c1 [Compound I-60a] , tested on Btk (Tyr223) phosphorylation in Ramos cells (Homo sapiens), IC50: ≤ 10 nM

Result for "C=CC(=O)Nc1cccc(Nc2nc(Nc3ccc(N4CCN(CCF)CC4)c(F)c3)ncc2F)c1" , tested on Btk (Tyr223) phosphorylation in Ramos cells (Homo sapiens), IC50: ≤ 10 nM

Result for C=CC(=O)Nc1cccc(Oc2nc(Nc3ccc(N(C)CCOC)nc3)ncc2OC)c1 [Compound I-33a] , tested on Btk (Tyr223) phosphorylation in Ramos cells (Homo sapiens), IC50: 10 to 100 nM
